Where do the numbers come from? From ChEMBL document CHEMBL6182944.

So I've got a bunch of compounds here, and I need their uptake ratio at 1 min, 2.5 µM values.
molecular target: MATE2-K (Homo sapiens, UniProt Q86VL8); assay: in vitro; settings: HEK293 cells expressing MATE2-K
Sequence (Q86VL8 whole entry): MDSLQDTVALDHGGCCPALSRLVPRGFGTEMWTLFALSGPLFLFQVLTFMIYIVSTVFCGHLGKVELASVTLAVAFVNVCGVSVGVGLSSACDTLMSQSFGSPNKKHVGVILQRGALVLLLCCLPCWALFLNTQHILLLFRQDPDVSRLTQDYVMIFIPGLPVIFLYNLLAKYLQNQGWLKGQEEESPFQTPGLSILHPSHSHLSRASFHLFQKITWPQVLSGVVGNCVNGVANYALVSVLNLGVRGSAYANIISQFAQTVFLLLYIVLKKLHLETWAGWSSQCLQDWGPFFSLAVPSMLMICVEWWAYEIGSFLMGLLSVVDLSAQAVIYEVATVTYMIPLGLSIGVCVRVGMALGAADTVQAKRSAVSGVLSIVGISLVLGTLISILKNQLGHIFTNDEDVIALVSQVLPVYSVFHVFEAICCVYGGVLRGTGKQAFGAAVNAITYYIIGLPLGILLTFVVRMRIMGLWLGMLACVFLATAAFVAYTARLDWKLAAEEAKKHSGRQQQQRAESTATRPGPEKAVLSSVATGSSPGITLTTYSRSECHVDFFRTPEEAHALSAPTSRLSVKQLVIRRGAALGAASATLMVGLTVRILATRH

Illustrative cases are given below, each with its answer.
INSERT INTO assay_data (compound, value_kind, meas_value) VALUES
  ('NCC(O)c1ccc(O)cc1 (stereo unspecified)', 'uptake ratio at 1 min, 2.5 µM', '< 2'),
  ('C=CCN1CCCC1CNC(=O)c1cc2[nH]nnc2cc1OC (stereo unspecified) [ALIZAPRIDE]', 'uptake ratio at 1 min, 2.5 µM', '> 2'),
  ('CC[C@@H]1C(=O)OC[C@@H]1Cc1cncn1C', 'uptake ratio at 1 min, 2.5 µM', '< 2');

Look up uptake ratio at 1 min, 2.5 µM for the entries below, preserving their order.
1. CNCCc1ccc(O)c(O)c1 [DEOXIEPINEPHRINE]
2. CCN(CC)C(=O)Nc1ccc(OCC(O)CNC(C)(C)C)c(C(C)=O)c1 (stereo unspecified)
3. CC(C)NCC(O)c1ccc(O)c(O)c1 (stereo unspecified)
4. OCCN1CCN(CCCN2c3ccccc3Sc3ccc(C(F)(F)F)cc32)CC1
5. COc1ccc2[nH]cc(C[C@H](N)C(=O)O)c2c1

Marked response:
1: > 2; 2: > 2; 3: > 2; 4: < 2; 5: < 2

----------
Give uptake ratio at 1 min, 2.5 µM for every item shown.
molecular target: MATE1 (Homo sapiens, UniProt Q96FL8); assay: in vitro; settings: HEK293 cells expressing MATE1

# annotated cases, reported uptake ratio at 1 min, 2.5 µM shown
INSERT INTO results (compound, meas_value) VALUES
  ('CC[C@@]1(O)C(=O)OCc2c1cc1n(c2=O)Cc2cc3c(CN(C)C)c(O)ccc3nc2-1', '> 2'),
  ('CC(CCc1ccc(O)cc1)NCCc1ccc(O)c(O)c1 (stereo unspecified)', '> 2'),
  ('CNC(=O)c1cccnc1 [NICOTINYL METHYLAMIDE]', '> 2'),
  ('CCCC[N+]1(C)[C@@H]2C[C@@H](OC(=O)[C@H](CO)c3ccccc3)C[C@H]1[C@@H]1O[C@@H]12 (stereo partly specified)', '> 2'),
  ('CC1(C)N=C(N)N=C(N)N1c1ccc(Cl)cc1', '> 2'),
  ('CNCCc1ccc(O)c(O)c1 [DEOXIEPINEPHRINE]', '> 2'),
  ('CN(CC(=O)O)C(=N)N', '< 2'),
  ('CC(C)NCC(O)c1ccc(NS(C)(=O)=O)cc1 (stereo unspecified)', '> 2'),
  ('CNCCc1ccccc1', '< 2'),
  ('CC(=O)c1cc2cccc(OCC(O)CNC(C)C)c2o1 (stereo unspecified)', '< 2');

Give uptake ratio at 1 min, 2.5 µM for each listed item.
1. O=C(C[S+]([O-])Cc1ccco1)NC/C=C\COc1cc(CN2CCCCC2)ccn1 (stereo unspecified)
2. CC(C)NCC(O)COc1cccc2[nH]ccc12 (stereo unspecified)

Marked response:
1. < 2
2. > 2

Items follow; give uptake ratio at 1 min, 2.5 µM for each.
1. C[N+]1(C)CCCC(OC(=O)C(O)(c2ccccc2)c2ccccc2)C1 (stereo unspecified) [MEPENZOLATE BROMIDE]
2. NC(N)=NCCCCN=C(N)N
3. COc1cc2c(cc1OC)-c1cc3ccc4c(c3c[n+]1CC2)OCO4
4. COCCn1c2c([n+](Cc3cnccn3)c1C)C(=O)c1ccccc1C2=O
5. NC(=O)C1(N2CCCCC2)CCN(CCCC(=O)c2ccc(F)cc2)CC1

Marked response:
1. > 2
2. > 2
3. > 2
4. > 2
5. < 2

Dear colleague, could you send me uptake ratio at 1 min, 2.5 µM for each of the items below? Thanks.
1. C[C@@H]1O[C@@]2(CS1)CN1CCC2CC1
2. Nc1nc(CC(=O)Nc2ccc(CCNC[C@H](O)c3ccccc3)cc2)cs1
3. C[N+]12CCC(CC1)C(OC(=O)C(O)(c1ccccc1)c1ccccc1)C2 (stereo unspecified)
4. Nc1ccn([C@@H]2O[C@H](CO)[C@@H](O)C2(F)F)c(=O)n1

Marked response:
1: < 2; 2: > 2; 3: > 2; 4: < 2

----------
biological target: MATE2-K (Homo sapiens, UniProt Q86VL8); experiment: Substrate activity at MATE2-K (unknown origin) expressed in HEK293 cells assessed as substrate concentration to achieve half of Vmax (maximum transport velocity) measured per mg of protein by HPLC-MS/MS analysis; assay type: cell-based; details: HEK293 cells expressing MATE2-K
VALUE_KIND: Km (µM)
Numbers only, in µM.

So the reported Km for CN(C)CCc1c[nH]c2ccc(C[C@@H]3COC(=O)N3)cc12 , on MATE2-K (Homo sapiens, UniProt Q86VL8), turned out to be 18.3

----------
Molecular target: MATE1 (Homo sapiens, UniProt Q96FL8)
Sequence (Q96FL8 whole entry): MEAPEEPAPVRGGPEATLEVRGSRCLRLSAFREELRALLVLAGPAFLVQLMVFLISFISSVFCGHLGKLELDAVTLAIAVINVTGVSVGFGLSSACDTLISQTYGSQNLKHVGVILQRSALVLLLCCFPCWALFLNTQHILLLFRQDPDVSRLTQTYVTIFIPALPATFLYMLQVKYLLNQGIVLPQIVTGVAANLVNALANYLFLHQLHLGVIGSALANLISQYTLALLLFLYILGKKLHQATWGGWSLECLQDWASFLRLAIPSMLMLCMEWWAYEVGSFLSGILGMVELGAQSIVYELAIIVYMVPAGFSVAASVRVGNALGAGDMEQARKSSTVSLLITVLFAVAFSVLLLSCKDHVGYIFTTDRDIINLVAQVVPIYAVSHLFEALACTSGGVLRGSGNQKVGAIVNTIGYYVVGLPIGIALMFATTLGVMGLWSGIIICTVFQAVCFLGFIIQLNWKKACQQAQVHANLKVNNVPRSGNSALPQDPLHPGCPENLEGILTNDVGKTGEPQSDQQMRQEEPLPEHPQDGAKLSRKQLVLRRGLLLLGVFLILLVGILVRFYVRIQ
Assay: in vitro
Conditions: HEK293 cells expressing MATE1
VALUE_KIND: uptake ratio at 1 min, 2.5 µM

INSERT INTO results (compound, meas_value) VALUES
  ('C=CCN1CCCC1CNC(=O)c1cc2[nH]nnc2cc1OC (centres undefined) [ALIZAPRIDE]', '> 2'),
  ('CCN(CC)CCNC(=O)c1ccc(NS(C)(=O)=O)cc1 [SEMATILIDE]', '> 2'),
  ('Cc1ncc(C[n+]2cccc(CCO)c2C)c(N)n1', '> 2'),
  ('CC(C)(C)NCC(O)c1cc(O)cc(O)c1 (centres undefined) [TERBUTALINE]', '> 2'),
  ('CN(C)CCc1c[nH]c2ccc(CS(=O)(=O)N3CCCC3)cc12 [ALMOTRIPTAN]', '> 2'),
  ('CN(C)C(=O)Oc1cccc([N+](C)(C)C)c1 [NEOSTIGMINE]', '> 2');

I have 2 compounds here; please give me uptake ratio at 1 min, 2.5 µM for each one.
1. Nc1ncn([C@H]2C[C@H](O)[C@@H](CO)O2)c(=O)n1 [DECITABINE]
2. NCC(O)c1cccc(O)c1 (centres undefined) [NORFENEFRINE]

Marked response:
1. < 2
2. > 2

Dear colleague, could you please provide uptake ratio at 1 min, 2.5 µM for the compounds listed below?
1. CCC(NC(C)C)C(O)c1ccc(O)c(O)c1 (centres undefined) [ISOETHARINE]
2. Cc1cc(O)cc(C)c1OCC(C)N (centres undefined)
3. N=C(N)NCCC[C@H](NC(=O)c1ccc2ccccc2c1O)C(=O)N1CCC[C@H]1C(N)=O
4. CC(C)[N+](C)(CCOC(=O)C1c2ccccc2Oc2ccccc21)C(C)C [PROPANTHELINE]
5. N[C@@H](CC(=O)N1CCn2c(nnc2C(F)(F)F)C1)Cc1cc(F)c(F)cc1F [SITAGLIPTIN]

Marked response:
1: > 2; 2: < 2; 3: > 2; 4: > 2; 5: > 2

Answer for every listed entry: what is its uptake ratio at 1 min, 2.5 µM? The entries follow.
1. [H]/N=C(\N/C(=N/[H])Nc1ccc(Cl)cc1)NC(C)C [PROGUANIL]
2. CN(C)C(=N)NCCC[C@H](N)C(=O)O
3. COC(=O)[C@@H]1[C@H]2CC[C@@H](C[C@@H]1O)N2C

Marked response:
> 2
< 2
< 2

For each entry beneath this line, provide reported uptake ratio at 1 min, 2.5 µM.
1. COc1cc(CCN)ccc1O
2. Nc1ccncc1N [AMIFAMPRIDINE]
3. CNC(C)Cc1ccc2c(c1)OCO2 (centres undefined) [MIDOMAFETAMINE]
4. CC[C@@H](C(N)=O)N1CCCC1=O
5. CCC(Cc1ccc2c(c1)OCO2)NC (centres undefined)
6. N=C(N)NCCCCN [AGMATINE]

Marked response:
["> 2", "> 2", "< 2", "< 2", "< 2", "< 2"]

State recorded uptake ratio at 1 min, 2.5 µM for all listed compounds.
1. CNCCc1ccc(O)cc1
2. O=C(O[C@H]1C[N+]2(CCCOc3ccccc3)CCC1CC2)C(O)(c1cccs1)c1cccs1

Marked response:
["> 2", "> 2"]
